Quick reference for MIC among some molecules
# Tested on: Erysipelothrix rhusiopathiae NCTC 8163
measurement-type: MIC (µg/mL)

molecule="CSc1ccc(-c2nnc(C=C(C)CC3OCC(CC4OC4C(C)C(C)O)C(O)C3O)o2)cc1 (stereo not drawn)" measurement_type=MIC readout_qualifier== observed_value=40
molecule="CC(=Cc1nc(-c2ccccc2)no1)CC1OCC(CC2OC2C(C)C(C)O)C(O)C1O (stereo not drawn)" measurement_type=MIC readout_qualifier== observed_value=40
molecule="COC(=O)CCCCCCCCn1nnnc1C=C(C)CC1OCC(CC2OC2C(C)C(C)O)C(O)C1O (stereo not drawn)" measurement_type=MIC readout_qualifier=> observed_value=80
molecule="CC(=Cc1nnc(-c2cccs2)o1)CC1OCC(CC2OC2C(C)C(C)O)C(O)C1O (stereo not drawn)" measurement_type=MIC readout_qualifier== observed_value=80
molecule="CC(=Cc1nnc(-c2cccnc2)o1)CC1OCC(CC2OC2C(C)C(C)O)C(O)C1O (stereo not drawn)" measurement_type=MIC readout_qualifier== observed_value=80
molecule="CC(=Cc1nnnn1CCCCCCCCC(=O)O)CC1OCC(CC2OC2C(C)C(C)O)C(O)C1O (stereo not drawn)" measurement_type=MIC readout_qualifier=> observed_value=80
molecule="CC(=Cc1noc(-c2ccccc2)n1)CC1OCC(CC2OC2C(C)C(C)O)C(O)C1O (stereo not drawn)" measurement_type=MIC readout_qualifier== observed_value=10
molecule="CC(=Cc1nnc(-c2ccc(S(C)(=O)=O)cc2)o1)CC1OCC(CC2OC2C(C)C(C)O)C(O)C1O (stereo not drawn)" measurement_type=MIC readout_qualifier== observed_value=40
molecule="CC(=Cc1nnc(-c2cccc(C#N)c2)o1)CC1OCC(CC2OC2C(C)C(C)O)C(O)C1O (stereo not drawn)" measurement_type=MIC readout_qualifier== observed_value=40

----------
# System: M. hyopneumoniae NCTC 101101
# measurement-description: MIC against Mycoplasma in vitro (Friis broth with agarose)
# Format: cell-based
# stated-conditions: Mesomycoplasma hyopneumoniae, NCTC101101, 144 h
Each entry below carries its reported MIC.
measurement-type: MIC

compound="CC(=Cc1nnc(-c2cccs2)o1)CC1OCC(CC2OC2C(C)C(C)O)C(O)C1O (stereo not shown)" observed_value="5 µg/mL"
compound="CSc1ccc(-c2nnc(C=C(C)CC3OCC(CC4OC4C(C)C(C)O)C(O)C3O)o2)cc1 (stereo not shown)" observed_value="1 µg/mL"
compound="CC(=Cc1nnc(-c2cccc([N+](=O)[O-])c2)o1)CC1OCC(CC2OC2C(C)C(C)O)C(O)C1O (stereo not shown)" observed_value="0.05 µg/mL"
compound="CC(=CC(=O)NN)CC1OCC(CC2OC2C(C)C(C)O)C(O)C1O (stereo not shown) [Example 9, Monohydrazide A]" observed_value="10 µg/mL"

----------
# Test system: M. hyopneumoniae NB12
# measurement-description: MIC against Mycoplasma in vitro (Friis broth with agarose)
# Type: cell-based
# stated-conditions: Mesomycoplasma hyopneumoniae, NB12, 144 h
Measured MIC, listed per entry for reference.
measurement-type: MIC (mg/L)

compound="CC(=CC(=O)NN)CC1OCC(CC2OC2C(C)C(C)O)C(O)C1O (stereo not shown) [Example 9, Monohydrazide A]" observed_value=10
compound="CC(=Cc1nnc(-c2cccnc2)o1)CC1OCC(CC2OC2C(C)C(C)O)C(O)C1O (stereo not shown)" observed_value=2.5
compound="CC(=Cc1nnc(-c2cccc(C#N)c2)o1)CC1OCC(CC2OC2C(C)C(C)O)C(O)C1O (stereo not shown)" observed_value=0.25
compound="CC(=Cc1nnc(-c2cccc([N+](=O)[O-])c2)o1)CC1OCC(CC2OC2C(C)C(C)O)C(O)C1O (stereo not shown)" observed_value=0.05

Data origin: patent US4861788A
